TEST_NAME: qHTS for Inhibitors of Inflammasome Signaling: IL-1-beta AlphaLISA Primary Screen; note: % is set by controls: 0 for no effect and ±100 for the full control effect
CONDITION_SUMMARY: THP-1 LPS/ATP IL-1B secretion, 16 h; at 57.5 µM, active compounds read low
The campaign covered roughly 360,000 compounds. About 17,000 (4.7%) were called active. Roughly 5% stayed inconclusive and do not appear here. The entries come from a sample that favours actives as a whole.
Classify: class 1 when activity change is strictly less than -10%; class 0 when activity change is not.

Determine whether this compound shows activity change lower than -10% (ties excluded): CCc1ccc(CNC(=O)C2CCN(c3nnc(C)c4c(C)n(-c5ccc(C)cc5)nc34)CC2)cc1
class 1

Determine whether this compound shows activity change lower than -10% (ties excluded): C[C@H]1CN([C@@H](C)CO)C(=O)c2cc(-c3ccccc3F)cnc2O[C@H]1CN(C)C(=O)C1CCOCC1
class 0

Determine whether this compound shows activity change lower than -10% (ties excluded): COC(=O)[C@]12CCCCC=C1N(CCC1=CCCCC1)C(=O)[C@H](CC(=O)NCC1CCCCC1)C2
class 1

New cases:
Determine whether this compound shows activity change lower than -10% (ties excluded): CCCC/C=C/c1cccc2nncn12
class 0

Determine whether this compound shows activity change lower than -10% (ties excluded): CC(=O)NC(NC(=S)Nc1c(C)n(C)n(-c2ccccc2)c1=O)C(Cl)(Cl)Cl (stereo not given)
class 0

Determine whether this compound shows activity change lower than -10% (ties excluded): CCOC(=O)[C@]12CCC=C1N(Cc1cccc3ccccc13)C(=O)[C@H](CC(=O)NCc1cccc(C(F)(F)F)c1)C2
class 1

Determine whether this compound shows activity change lower than -10% (ties excluded): OCCC1CN(Cc2cccc(OC3CCCC3)c2)CCN1Cc1ccsc1 (stereo not given)
class 1

Determine whether this compound shows activity change lower than -10% (ties excluded): Cc1ccc(Nc2ccccc2N)cc1
class 1

Determine whether this compound shows activity change lower than -10% (ties excluded): Cc1ccc(S(=O)(=O)N2CC3C(=O)C[C@@H](c4ccccc4Cl)N(S(=O)(=O)c4ccc(C)cc4)C3CC2c2ccccc2)cc1 (stereo not given in full)
class 1

---

Reported activity change is given for each of the following molecules.
TEST_NAME: qHTS for Inhibitors of Inflammasome Signaling: IL-1-beta AlphaLISA Primary Screen
CONDITION_SUMMARY: THP-1 LPS/ATP IL-1B secretion, 16 h; at 57.5 µM, active compounds read low
The whole screen tested about 360,000 compounds, of which about 17,000 (4.7%) were called active. Inconclusive results (about 5%) are left out. Only a selection was taken, and actives are over-represented in it overall.
Response body: numeric value in %, unit text excluded.

Examples from the recorded data:
For the molecule COc1ccc(/C=C2/CCCc3ccccc3C2=O)cc1 , what activity change is on record?
0

For the molecule O=C1/C(=C/c2cccs2)CCc2ccccc21 , what activity change is on record?
-13.1

For the molecule O=C(NC1CCCCC1)c1ccc(-c2ccc(Cl)cc2)o1 , what activity change is on record?
-76.5

New cases:
For the molecule O=S1(=O)CCOC[C@H](Cc2ccccc2)N1Cc1ccccc1Br , what activity change is on record?
-7.15

For the molecule COc1ccc(/C=C2\CCc3ccccc3C2=O)c(OC)c1OC , what activity change is on record?
-71

For the molecule CN=C1SC(C(=O)O)CC(=O)N1C (stereo unspecified) , what activity change is on record?
0.415

For the molecule CC1(C(=O)NCc2ccc(F)c(F)c2)Cc2c(-c3ccc4c(c3)OCO4)ccnc2O1 (stereo unspecified) , what activity change is on record?
46.6

For the molecule O=C(Nc1ccc(C(=O)O)cc1)/C(=C\c1ccccc1)NC(=O)c1ccc(Br)cc1 , what activity change is on record?
-0.689

For the molecule COc1ccc(C(=O)N(C)Cc2ccc(OC)c(OC)c2OC)cc1S(=O)(=O)N1CCOCC1 , what activity change is on record?
-8.15

For the molecule CCCNC(=O)c1cc(C2CCCN(C(=O)c3ccc4c(c3)CCO4)C2)on1 (stereo unspecified) , what activity change is on record?
25.3

For the molecule O=C(NCCc1ccccc1)/C(=C\c1ccc([N+](=O)[O-])cc1)NC(=O)c1ccccc1 , what activity change is on record?
4.21

---

TEST_NAME: qHTS for Inhibitors of Inflammasome Signaling: IL-1-beta AlphaLISA Primary Screen
CONDITION_SUMMARY: THP-1 LPS/ATP IL-1B secretion, 16 h; at 57.5 µM
Screen size: about 360,000 compounds; about 17,000 (4.7%) were called active. About 5% were inconclusive and are not listed. Rule as the data show it: active = activity change below about -50%; inconclusive = mostly about -30% to -49%; inactive = weaker than that. The full list was thinned out, with actives kept by preference.
Lab note: assign the record to one of active, inactive

// param item: Cn1c(=O)c2c(nc(SCCNS(=O)(=O)c3ccccc3)n2C)n(C)c1=O ; yields the recorded call
inactive

// param item: COCCNC(=S)N/N=C/c1c(C)[nH]c2ccccc12 ; yields the recorded call
active

// param item: Cc1ccc(C(=O)NC(C)C(c2cccs2)N2CCOCC2)cc1C (stereo unspecified) ; yields the recorded call
inactive

// param item: S=C(c1ccc(-c2ccccc2)o1)N1CCCCC1 ; yields the recorded call
active

// param item: CC1(Oc2ccccc2-c2ccno2)CCN(Cc2ccc(-c3ccccc3)o2)C1 (stereo unspecified) ; yields the recorded call
inactive

// param item: O=C1N[C@@H](Cc2ccccc2)C(=O)N2[C@@H]3N(S(=O)(=O)c4ccc(F)cc4)c4ccccc4[C@]3(Br)C[C@@H]12 ; yields the recorded call
inactive

// param item: C=CCN(CC=C)C(=O)COC(=O)c1n[nH]c2ccccc12 ; yields the recorded call
inactive

// param item: Cc1ccc(S(=O)(=O)N2CCCCC2)cc1NC(=O)CCNC(=O)c1ccccc1Cl ; yields the recorded call
inactive

// param item: CCOC(=O)[C@]12CCCC=C1N(CCC1=CCCCC1)C(=O)[C@H](CC(=O)N1CCN(C(=O)c3ccco3)CC1)C2 ; yields the recorded call
inactive

// param item: O=C1NC[C@H](CCCCN2C[C@H](Cc3ccccc3)N(Cc3ccccc3)C(=O)C2=O)N(CCc2ccc(O)cc2)C1=O ; yields the recorded call
inactive

New cases:
// param item: CCNc1c(NS(=O)(=O)c2ccc(C3CCCCC3)cc2)c(=O)oc2ccccc12 ; yields the recorded call
inactive

// param item: O=C(C(=O)N1CCN(c2ccccc2)CC1)c1ccc2c(c1)OCO2 ; yields the recorded call
inactive

// param item: Cc1ccc2nc(-c3ccco3)c(Cc3cccc(Cl)c3)n2c1 ; yields the recorded call
inactive

// param item: Nc1nc2c(ncn2[C@@H]2O[C@H](CNCc3ccc(OCCCN4CCOCC4)cc3)[C@@H](O)[C@H]2O)c(=O)[nH]1 ; yields the recorded call
inactive

// param item: CCC1CCCCN1C(=O)CSc1nc2c(c(=O)n(C)c(=O)n2C)n1C (stereo unspecified) ; yields the recorded call
inactive

// param item: CC(C)C(NC(=O)c1c(F)cccc1F)C(=O)NCc1ccncc1 (stereo unspecified) ; yields the recorded call
inactive

// param item: O=C(NC(=S)NC1CCCCC1)c1ccc(Cl)cc1 ; yields the recorded call
inactive

---

TEST_NAME: qHTS for Inhibitors of Inflammasome Signaling: IL-1-beta AlphaLISA Primary Screen
CONDITION_SUMMARY: THP-1 LPS/ATP IL-1B secretion, 16 h; at 57.5 µM, active compounds read low
Out of some 360,000 compounds screened, about 17,000 (4.7%) were called active. Inconclusive results (about 5%) are left out. The list comes from a sample in which actives are over-represented; it also holds close analogues and randomly drawn compounds.
Reported activity change is given for each of the following molecules.
Response body: numeric value in %, unit text excluded.

For the molecule Cc1sc2ncnc(SCC(=O)NC3CCS(=O)(=O)C3)c2c1C (configuration not stated) , what activity change is on record?
-4.05

New cases:
For the molecule S=C(NCc1cccnc1)Nc1ccc(Cl)cc1Cl , what activity change is on record?
11

For the molecule CC(=O)N1Cc2cc(C(=O)NCc3cccc(F)c3)nc(-c3cccc(C4=CCCC4)c3)c2[C@H]1CCO , what activity change is on record?
-67.2

For the molecule CC(CCc1ccccc1)NC(=O)c1cnc(Cl)c(Cl)c1 (configuration not stated) , what activity change is on record?
12.3

For the molecule CCN(CC)c1ccc(C(=O)N/N=C(\C)c2cccc(OC)c2)cc1 , what activity change is on record?
96.6

For the molecule O=C1CCC(C(=O)N2CCC(O)(c3ccccc3)CC2)CN1CCc1ccccc1 (configuration not stated) , what activity change is on record?
-11.9

For the molecule COc1cccc(/C(C)=N/Nc2ncc(Cl)cc2Cl)c1 , what activity change is on record?
-80.6

For the molecule CN(C(=O)c1cccc(NC(=O)Cc2ccc(NC(=O)C3CCCN(C(=O)C4CCCC4)C3)cc2)c1)C1CCC1 (configuration not stated) , what activity change is on record?
-10.6

For the molecule CCOc1ccc(S(=O)(=O)Nc2nccs2)cc1 , what activity change is on record?
-1.81

For the molecule CCNC(=O)c1cc2c(c(-c3cccc(-c4cncnc4)c3)n1)[C@H](CCO)N(C(C)=O)C2 , what activity change is on record?
42.5

For the molecule N#Cc1cccc(NC(=O)CN2CCCCCC2)c1 , what activity change is on record?
-4.14

For the molecule CCOC(=O)[C@]12CCCC=C1N(Cc1ccc3c(c1)OCO3)C(=O)[C@H](CC(=O)N1CCN(C(=O)c3ccco3)CC1)C2 , what activity change is on record?
-17.6

For the molecule COc1cc(NS(=O)(=O)c2ccc3ccccc3c2)c2ncccc2c1 , what activity change is on record?
20.6

For the molecule FC(F)Oc1ccccc1NC(=S)Nc1cccc(Cl)c1Cl , what activity change is on record?
23.7

For the molecule N#C/C=C(/c1ccc(F)cc1)N1CCOCC1 , what activity change is on record?
11.5

For the molecule COc1ccc(CCNC(=O)COC(=O)c2cnc(Cl)c(Cl)c2)cc1 , what activity change is on record?
-11.2

For the molecule CC(C)CN1C(=O)CN(S(C)(=O)=O)CC1(C)C(=O)NCc1ccccc1 (configuration not stated) , what activity change is on record?
37.5

Reference for the values: PubChem BioAssay AID743279
